measuredOn: Glutaminase kidney isoform, mitochondrial (Mus musculus) (UniProt D3Z7P3)
Sequence (whole entry): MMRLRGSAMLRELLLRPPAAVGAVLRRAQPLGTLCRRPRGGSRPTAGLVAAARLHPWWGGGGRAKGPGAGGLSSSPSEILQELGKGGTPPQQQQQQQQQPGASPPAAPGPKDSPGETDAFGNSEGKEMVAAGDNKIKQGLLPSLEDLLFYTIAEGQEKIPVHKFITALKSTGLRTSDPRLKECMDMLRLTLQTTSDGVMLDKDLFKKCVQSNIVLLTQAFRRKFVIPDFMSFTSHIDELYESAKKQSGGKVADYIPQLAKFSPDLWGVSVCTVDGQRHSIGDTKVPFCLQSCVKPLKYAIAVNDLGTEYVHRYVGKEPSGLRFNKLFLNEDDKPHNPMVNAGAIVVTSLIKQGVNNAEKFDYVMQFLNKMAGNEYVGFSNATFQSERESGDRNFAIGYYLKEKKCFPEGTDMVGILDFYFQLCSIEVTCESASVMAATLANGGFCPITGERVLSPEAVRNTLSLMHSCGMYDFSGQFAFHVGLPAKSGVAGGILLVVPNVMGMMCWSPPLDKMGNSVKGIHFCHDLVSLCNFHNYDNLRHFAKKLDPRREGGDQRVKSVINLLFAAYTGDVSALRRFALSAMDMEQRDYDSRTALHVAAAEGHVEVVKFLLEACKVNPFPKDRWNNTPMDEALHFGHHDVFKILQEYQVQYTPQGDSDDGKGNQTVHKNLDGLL
assaySummary: Inhibition of GLS1 in mouse kidney extract at 10 mM relative to control
Type: tissue-based
# inhibition listing for each entry below
Answer in %, number only, no unit symbol.

Give the measured inhibition of O=C(N[C@H]1CC[C@H](O)CC1)c1cc(Cc2ccc(F)cc2)n[nH]1 . 90.1

Give the measured inhibition of O=C(N[C@H]1CC[C@H](O)CC1)c1cc(-c2ccccc2)n[nH]1 . 93.3

Give the measured inhibition of NNC(=O)c1cc(-c2ccccc2)n[nH]1 . 52.6

Give the measured inhibition of O=C(N[C@H]1CC[C@H](O)CC1)c1cc(Cc2ccccc2)n[nH]1 . 99.4

Give the measured inhibition of O=C(N[C@H]1CC[C@H](O)CC1)c1cc(CCc2ccccc2)n[nH]1 . 58.6

----------
measuredOn: Glutaminase kidney isoform, mitochondrial (Mus musculus)
assaySummary: Inhibition of mouse recombinant GLS1 relative to control
conditionParameters: concentration not given here
# inhibition listing for each entry below
# output: number + unit

The cases that follow already have their inhibition on record.
O=C(N[C@H]1CC[C@H](O)CC1)c1cc(-c2ccccc2)n[nH]1: 81.4%
O=C(N[C@H]1CC[C@H](O)CC1)c1cc(Cc2ccc(F)cc2)n[nH]1: 73.2%
[N-]=[N+]=CC(=O)CC[C@H](N)C(=O)O: 55.5%

Could you now look at the following compound, please?
Give the measured inhibition of O=C(N[C@H]1CC[C@H](O)CC1)c1cc(Cc2ccccc2)n[nH]1 . 19.7%

----------
measuredOn: Glutaminase kidney isoform, mitochondrial (Mus musculus)
Sequence (whole entry): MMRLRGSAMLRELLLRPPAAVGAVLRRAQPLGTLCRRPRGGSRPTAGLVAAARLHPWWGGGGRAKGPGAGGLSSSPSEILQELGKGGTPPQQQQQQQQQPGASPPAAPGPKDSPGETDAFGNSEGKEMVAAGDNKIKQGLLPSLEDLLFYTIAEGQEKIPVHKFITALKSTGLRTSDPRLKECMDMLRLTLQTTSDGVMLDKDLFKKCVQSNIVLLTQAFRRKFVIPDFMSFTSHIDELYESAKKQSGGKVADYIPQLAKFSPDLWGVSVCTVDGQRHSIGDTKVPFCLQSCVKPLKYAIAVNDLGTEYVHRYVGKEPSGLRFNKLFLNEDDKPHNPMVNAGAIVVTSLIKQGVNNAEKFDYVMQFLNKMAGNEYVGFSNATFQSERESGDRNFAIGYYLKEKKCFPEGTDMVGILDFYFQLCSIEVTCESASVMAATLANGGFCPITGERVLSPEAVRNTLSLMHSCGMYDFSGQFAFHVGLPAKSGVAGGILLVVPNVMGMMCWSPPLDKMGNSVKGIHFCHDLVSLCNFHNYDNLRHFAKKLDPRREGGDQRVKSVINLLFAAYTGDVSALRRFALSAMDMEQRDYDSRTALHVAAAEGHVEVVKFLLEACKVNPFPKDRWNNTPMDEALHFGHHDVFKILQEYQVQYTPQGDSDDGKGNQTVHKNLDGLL
assaySummary: Inhibition of GLS1 in mouse kidney extract at 10 mM
Format: tissue-based
Activity calls are given as the source filed them. No cut-off for these calls is given here.
API: response.call in 1 = active, 0 = inactive

O=C(NCCO)c1cc(Cc2ccccc2)n[nH]1: 0
O=C(c1cc(Cc2ccccc2)n[nH]1)N1CCCC1: 0
CNC(=O)c1cc(Cc2ccccc2)n[nH]1: 0

# outcome recorded in this test, key = O=C1CCC(NC(=O)c2cc(Cc3ccccc3)n[nH]2)CC1 0

# outcome recorded in this test, key = O=C(N[C@H]1CC[C@H](O)CC1)c1ccc(-c2ccccc2)[nH]1 0

# outcome recorded in this test, key = CN(C)C(=O)c1cc(Cc2ccccc2)n[nH]1 0

----------
measuredOn: Glutaminase kidney isoform, mitochondrial (Mus musculus)
Sequence (whole entry): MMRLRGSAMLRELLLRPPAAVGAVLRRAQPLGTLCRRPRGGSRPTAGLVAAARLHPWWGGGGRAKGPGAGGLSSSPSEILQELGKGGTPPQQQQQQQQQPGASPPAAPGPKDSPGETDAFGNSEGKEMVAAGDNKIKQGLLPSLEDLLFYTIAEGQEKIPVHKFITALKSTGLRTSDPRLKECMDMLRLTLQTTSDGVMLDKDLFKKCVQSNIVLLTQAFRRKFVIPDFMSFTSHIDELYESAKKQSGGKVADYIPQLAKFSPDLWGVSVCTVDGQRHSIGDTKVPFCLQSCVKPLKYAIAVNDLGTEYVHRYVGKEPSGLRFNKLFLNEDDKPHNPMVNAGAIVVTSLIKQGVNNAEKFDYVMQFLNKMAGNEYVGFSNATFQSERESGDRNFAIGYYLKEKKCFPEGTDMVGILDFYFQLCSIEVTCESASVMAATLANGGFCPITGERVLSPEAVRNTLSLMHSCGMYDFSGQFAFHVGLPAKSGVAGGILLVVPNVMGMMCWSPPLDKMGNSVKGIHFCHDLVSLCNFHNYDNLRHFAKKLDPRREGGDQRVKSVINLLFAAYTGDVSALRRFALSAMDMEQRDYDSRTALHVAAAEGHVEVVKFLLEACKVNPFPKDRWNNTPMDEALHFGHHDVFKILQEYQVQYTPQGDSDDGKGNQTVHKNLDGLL
assaySummary: Inhibition of GLS1 in mouse kidney extract at 10 mM
Format: tissue-based
Calls of active or inactive are those of the source. No cut-off for these calls is given here.
API: response.call in T for active, F for inactive

# outcome recorded in this test, key = CON(C)C(=O)c1cc(Cc2ccccc2)n[nH]1 F

# outcome recorded in this test, key = O=C(N[C@H]1CC[C@H](O)CC1)c1cc(-c2ccccc2)c[nH]1 F

# outcome recorded in this test, key = O=C(N[C@H]1CC[C@H](O)CC1)c1ncc(-c2ccccc2)[nH]1 T

# outcome recorded in this test, key = O=C(c1cc(Cc2ccccc2)n[nH]1)N1CCOCC1 F

# outcome recorded in this test, key = O=C(Nc1ccccc1)c1cc(Cc2ccccc2)n[nH]1 F

# outcome recorded in this test, key = O=C(c1cc(Cc2ccccc2)n[nH]1)N1CCCCCC1 F

# outcome recorded in this test, key = O=C(c1cc(Cc2ccccc2)n[nH]1)N1CCC(O)CC1 F

# outcome recorded in this test, key = O=C(c1cc(Cc2ccccc2)n[nH]1)N1CCCCC1 F

Provenance of the data: ChEMBL document CHEMBL5257076
